tested on: Isocitrate dehydrogenase [NADP] cytoplasmic (Homo sapiens), O75874 [R132H]; test: Inhibition of IDH1 R132H mutant (unknown origin) assessed as reduction in NADPH consumption using alpha-KG as substrate at 38 uM incubated for 5 mins by diaphorase/resazurin-coupled system relative to control
Sequence (O75874 whole entry R132H): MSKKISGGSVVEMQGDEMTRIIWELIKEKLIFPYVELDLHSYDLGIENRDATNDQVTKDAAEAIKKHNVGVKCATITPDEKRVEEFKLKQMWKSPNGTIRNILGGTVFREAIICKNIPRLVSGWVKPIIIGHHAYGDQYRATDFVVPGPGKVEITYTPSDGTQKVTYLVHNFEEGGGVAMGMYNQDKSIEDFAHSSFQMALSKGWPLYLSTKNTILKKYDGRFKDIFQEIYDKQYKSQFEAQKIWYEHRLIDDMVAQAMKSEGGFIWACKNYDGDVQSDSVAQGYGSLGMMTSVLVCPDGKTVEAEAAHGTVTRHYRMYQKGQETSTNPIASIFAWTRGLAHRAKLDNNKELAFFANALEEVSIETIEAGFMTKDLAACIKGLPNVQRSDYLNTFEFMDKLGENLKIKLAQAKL
Label Criterion met when inhibition >= 80%; otherwise Criterion not met.

Field: example entries. Status: answers known.
SMILES | ANSWER LABEL
CCc1ccccc1-n1c2c(cc(-c3nc(-c4ccc(Cl)cc4)cs3)c1=O)C(=O)CC(C)(C)C2 | Criterion met
CCc1cccc(CC)c1-n1c(C)c(C(=O)NC(C)(C)C)cc(-c2nc(-c3ccc(Cl)cc3)cs2)c1=O | Criterion not met
CC1(C)CC(=O)c2cc(-c3nc(-c4ccc(Cl)cc4)cs3)c(=O)n(-c3ccccc3N)c2C1 | Criterion not met
CC1(C)CC(=O)c2cc(-c3nc(-c4ccc(Cl)cc4)cs3)c(=O)n(-c3ccccc3O)c2C1 | Criterion not met
CCc1cccc(CC)c1-n1c(C)c(C(=O)NCCO)cc(-c2nc(-c3ccc(Cl)cc3)cs2)c1=O | Criterion met
COc1ccc(OC)c(-n2c(=O)c(-c3nc(-c4ccc(Cl)cc4)cs3)cc3c(O)cccc32)c1 | Criterion not met

IN: Could you please find out whether `COc1ccc(OC)c(-n2c3c(cc(-c4cn(-c5ccc(Cl)cc5)cn4)c2=O)C(=O)CC(C)(C)C3)c1` has inhibition that meets 80% or exceeds it?
OUT: Criterion not met

IN: Assess whether reported inhibition for `CCc1cccc(CC)c1-n1c(CC2CCOCC2)c(C(=O)N2CCNCC2)cc(-c2nc(-c3ccc(Cl)cc3)cs2)c1=O` sits at 80% or higher.
OUT: Criterion met
